Origin of the recorded values: paper PMC10202359

System name: human NNMT (Homo sapiens, UniProt P40261)
Sequence (P40261 whole entry): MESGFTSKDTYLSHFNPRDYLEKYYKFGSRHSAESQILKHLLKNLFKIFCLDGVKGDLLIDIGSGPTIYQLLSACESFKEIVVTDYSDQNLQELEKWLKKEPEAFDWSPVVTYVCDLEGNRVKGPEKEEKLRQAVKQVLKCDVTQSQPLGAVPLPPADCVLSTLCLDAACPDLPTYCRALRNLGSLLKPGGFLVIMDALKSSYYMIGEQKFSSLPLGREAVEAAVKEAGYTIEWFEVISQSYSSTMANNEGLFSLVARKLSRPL
Measurement protocol: hNNMT enzymatic modulation, RapidFire SPE LC/MS assay (Lilly)
Format: biochemical
Experimental setup: MNAM product readout, LC/MS, Fig. 4B; read-out: hNNMT MNAN Rel IC50
Reported endpoint: pIC50
Give bare numbers, as −log10 of the molar value.

Ask | Complete the entry with pIC50 for COC(=O)CCC(C)C1CCC2C3C(N)CC4CC(OC(C)=O)CCC4(C)[C@H]3CC(N)C12C (stereo in doubt)
Reply | 5.78

====

System name: DNMT3b (Homo sapiens)
Reported endpoint: pIC50
Numbers only, as −log10 of the molar value.

Ask | Please indicate pIC50 recorded for Nc1ncnc2c1ncn2[C@@H]1O[C@H](CSCC[C@H](N)C(=O)O)[C@@H](O)[C@H]1O [SAH, S-(5′-Adenosyl)-L-homocysteine, reference compound]
Reply | 6.59
